molecular target: T1, HLA-A*0201/β2-microglobulin/NY-ESO peptide complex (human, biotinylated with E. coli biotin ligase at the added recognition sequence (biotinylated form used in the ELISA)); experiment: SPR (Biacore T200), scFv captured by anti-His antibody, HLA/NY-ESO as analyte, single cycle kinetics
T1 construct: also called HLA/NY-ESO; HLA-A2/NY-ESO

- binder: "NYA-2045 (scFv, also called NYA-2045 tag adduct) scFv: GEVQLVESGGGLVQPGGSLRLSCAASGFSIRSYDIHWVRLAPGKGLEWVATISYDGSQKYYADSVKGRFTISRDESKNTLYLQMNSLRAEDTAVYHCARGSSGHYEAFDIWGQGTLVTVSSGGGGSGGGGSGGGGSQSVLTQPPSASGTPGQRVTISCSGSSSNIGNWYVSWYQQLPGTAPKLLIYDNNKRPSGVPDRFSGSKSGTSASLAISGLQSEDEADYYCGTWDSSLSAPWVFGGGTKLTVLGAAAGAGGDYKDDDDKGAAAHHHHHH"
  unit-label: "nM"
  Kd: 0.8
